B1: INTS4 (parent)
chain: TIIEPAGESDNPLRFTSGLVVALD

Variants of: B1
Experiment: protein stability index of a GFP-peptide fusion (GPS, HEK-293T) (PSI 1-6); higher = more stable;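 note: lentivirally expressed fusions sorted by FACS into six bins by GFP to DsRed ratio, PSI derived from sequencing read proportions per bin multiplied by bin number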
Conditions: c terminus: a fixed tail appended
Quantity measured: protein stability index

Consider the worked cases shown below.
TIIEPAGESDNPLRFTSGLVVALI 1.33
TIIMPAGESDNPLRFTSGLVVALD 2.1
TIIEPAGESDNPLRFTAGLVVALD 2.51
TIIRPAGESDNPLRFTSGLVVALD 2.94
TIIEPAGESDNELRFTSGLVVALD 3.13

Please supply protein stability index for each of the following items, keeping them in order.
1. TIIEPAGESDNPLRDTSGLVVALD
2. TIIEHAGESDNPLRFTSGLVVALD
3. NIIEPAGESDNPLRFTSGLVVALD
4. TIIEPTGESDNPLRFTSGLVVALD
5. TIIEPAGESDNFLRFTSGLVVALD
6. TIIEPAGESDNPLRFFSGLVVALD
7. TIIEPAGESDNPLRFTSGLVVALM

[out]
[5.04, 2.83, 3.36, 2.61, 2.41, 2.35, 1.98]
